The entries below are paired with their reported percent of parent.
B1: MeV phosphoprotein (P), wild type [measles virus (strain IC-B)] / MeV L_(1708), C-terminally truncated large polymerase protein lacking the methyltransferase domain [measles virus (strain IC-B)] (parent complex)
chain 1: MAEEQARHVKNGLECIRALKAEPIGSLAVEEAMAAWSEISDNPGQDRATCKEEEAGSSGLSKPCLSAIGSTEGGAPRIRGQGSGESDDDAETLGIPSRNLQASSTGLQCYHVYDHSGEAVKGIQDADSIMVQSGLDGDSTLSGGDDESENSDVDIGEPDTEGYAITDRGSAPISMGFRASDVETAEGGEIHELLKLQSRGNNFPKLGKTLNVPPPPNPSRASTSETPIKKGTDARLASFGTEIASLLTGGATQCARKSPSEPSGPGAPAGNVPECVSNAALIQEWTPESGTTISPRSQNNEEGGDYYDDELFSDVQDIKTALAKIHEDNQKIISKLESLLLLKGEVESIKKQINRQNISISTLEGHLSSIMIAIPGLGKDPNDPTADVELNPDLKPIIGRDSGRALAEVLKKPVASRQLQGMTNGRTSSRGQLLKEFQLKPIGKKVSSAVGFVPDTGPASRSVIRSIIKSSRLEEDRKRYLMTLLDDIKGANDLAKFHQMLMKIIMK
chain 2: MDSLSVNQILYPEVHLDSPIVTNKIVAILEYARVPHAYSLEDPTLCQNIKHRLKNGFSNQMIINNVEVGNVIKSKLRSYPAHSHIPYPNCNQDLFNIEDKESTRKIRELLKKGNSLYSKVSDKVFQCLRDTNSRLGLGSELREDIKEKIINLGVYMHSSQWFEPFLFWFTVKTEMRSVIKSQTHTCHRRRHTPVFFTGSSVELLISRDLVAIISKESQHVYYLTFELVLMYCDVIEGRLMTETAMTIDARYAELLGRVRYMWKLIDGFFPALGNPTYQIVAMLEPLSLAYLQLRDITVELRGAFLNHCFTEIHDVLDQNGFSDEGTYHELIEALDYIFITDDIHLTGEIFSFFRSFGHPRLEAVTAAENVRKYMNQPKVIVYETLMKGHAIFCGIIINGYRDRHGGSWPPLTLPLHAADTIRNAQASGEGLTHEQCVDNWKSFAGVRFGCFMPLSLDSDLTMYLKDKALAALQREWDSVYPKEFLRYDPPKGTGSRRLVDVFLNDSSFDPYDMIMYVVSGAYLHDPEFNLSYSLKEKEIKETGRLFAKMTYKMRACQVIAENLISNGIGKYFKDNGMAKDEHDLTKALHTLAVSGVPKDLKESHRGGPVLKTYSRSPVHTSTRNVKAEKGFVGFPHVIRQNQDTDHPENIETYETVSAFITTDLKKYCLNWRYETISLFAQRLNEIYGLPSFFQWLHKRLETSVLYVSDPHCPPDLDAHVPLCKVPNDQIFIKYPMGGIEGYCQKLWTISTIPYLYLAAYESGVRIASLVQGDNQTIAVTKRVPSTWPYNLKKREAARVTRDYFVILRQRLHDIGHHLKANETIVSSHFFVYSKGIYYDGLLVSQSLKSIARCVFWSETIVDETRAACSNIATTMAKSIERGYDRYLAYSLNVLKVIQQILISLGFTINSTMTRDVVIPLLTNNDLLIRMALLPAPIGGMNYLNMSRLFVRNIGDPVTSSIADLKRMILASLMPEETLHQVMTQQPGDSSFLDWASDPYSANLVCVQSITRLLKNITARFVLIHSPNPMLKGLFHDDSKEEDERLAAFLMDRHIIVPRAAHEILDHSVTGARESIAGMLDTTKGLIRASMRKGGLTSRVITRLSNYDYEQFRAGMVLLTGRKRNVLIDKESCSVQLARALRSHMWARLARGRPIYGLEVPDVLESMRGHLIRRHETCVICECGSVNYGWFFVPSGCQLDDIDKETSSLRVPYIGSTTDERTDMKLAFVRAPSRSLRSAVRIATVYSWAYGDDDSSWNEAWLLARQRANVSLEELRVITPISTSTNLAHRLRDRSTQVKYSGTSLVRVARYTTISNDNLSFVISDKKVDTNFIYQQGMLLGLGVLETLFRLEKDTGSSNTVLHLHVETDCCVIPMIDHPRIPSSRKLELRAELCTNPLIYDNAPLIDRDATRLYTQSHRRHLVEFVTWSTPQLYHILAKSTALSMIDLVTKFEKDHMNEISALIGDDDINSFITEFLLIEPRLFTIYLGQCAAINWAFDVHYHRPSGKYQMGELLSSFLSRMSKGVFKVLVNALSHPKIYKKFWHCGIIEPIHGPSLDAQNLHTTVCNMVYTCYMTYLDLLLNEELEEFTFLLCESDEDVVPDRFDNIQAKHLCVLADLYCQPGTCPPIRGLRPVEKCAVLTDHIKAEARLSPAGSSWNINPIIVDHYSCSLTYLRRGSIKQIRLRVDPGFIFDALAEVNVSQPKVGSN

Variants of: B1
experimental.protocol: co-immunoprecipitation (IP anti-HA of P, immunoblot of L anti-FLAG, densitometry); lysates of transiently transfected cells, lysed 24 hours after transfection; IP at 4°C; parent: 100; read off a plot
quantity: percent of parent

# alteration, reported
rows = [
    ("chain 1 A495R", "~78 % of wild type P"),
    ("chain 1 S470R", "~65 % of wild type P"),
    ("chain 1 M502R", "~120 % of wild type P"),
    ("chain 1 A491R", "~120 % of wild type P"),
    ("chain 1 S466R", "~20 % of wild type P"),
    ("chain 1 V463R", "~5 % of wild type P"),
    ("chain 1 H498E", "~18 % of wild type P"),
]
